Values from patent EP0273272B1

system: spontan schlagenden, isolierten rechten Vorhöfen; experiment: Heart rate of spontaneously beating isolated right atria; design: species or system Meerschweinchen; details: 20 min, concentration lowering the rate to 75 % of the initial value 20 min after application, guinea pig, read-out: Effektive Konzentration zur Erreichung von FRQ 75 %
Returns the class for an entry based on its EC (FRQ 75%). Class ranges: low-valued = under 2 µM, mid-valued = from 2 µM up to 4 µM, high-valued = 4 µM and over

Examples from the recorded data:
> print(dat)
                                   molecule  group.label
1  Fc1ccc(CC2C3CC(CN4CCCCC34)C3CCCCN32)cc1 (stereo not shown)  high-valued
2  COc1cccc(CC2C3CC(CN4CCCCC34)C3CCCCN32)c1 (stereo not shown)   mid-valued
3  COc1cccc(CC2C3CC(CN4CCCCC34)C3CCCCN32)c1OC (stereo not shown)  high-valued
4  COc1ccccc1CC1C2CC(CN3CCCCC23)C2CCCCN21 (stereo not shown)  high-valued
5  Cc1cccc(CC2C3CC(CN4CCCCC34)C3CCCCN32)c1 (stereo not shown)   mid-valued

Q: Which bin, given its EC (FRQ 75%), does Cc1cccc(CC2C3CC(CN4CCCCC34)C3CCCCN32)c1F (stereo not shown) occupy?
Result: low-valued

Q: Which bin, given its EC (FRQ 75%), does Cc1ccc(CC2C3CC(CN4CCCCC34)C3CCCCN32)cc1 (stereo not shown) occupy?
Result: low-valued

Q: Which bin, given its EC (FRQ 75%), does c1ccc(CC2C3CC(CN4CCCCC34)C3CCCCN32)cc1 (stereo not shown) occupy?
Result: low-valued

Q: Which bin, given its EC (FRQ 75%), does Clc1ccccc1CC1C2CC(CN3CCCCC23)C2CCCCN21 (stereo not shown) occupy?
Result: low-valued
